Test system Candida tropicalis, MIC listed for each of the compounds.
Please state the figure in µg/mL; there is no need to write the unit.

Cc1cc2c(Nc3c[nH]nc3C(=O)Nc3ccc(CN4CCN(C)CC4)cc3)ncnc2[nH]1 = 3.24
CN1CCN(Cc2ccc(NC(=O)c3n[nH]cc3Nc3ncnc4sccc34)cc2)CC1 = 2.3
Cc1cc2c(Nc3c[nH]nc3C(=O)Nc3ccc(CN4CCN(C)CC4)cc3)nccc2s1 = 3.57

Q: Which MIC value is on record for CN1CCN(Cc2ccc(NC(=O)c3n[nH]cc3Nc3ncnc4ccoc34)cc2)CC1 ?
A: 3.24

Q: Same for CN1CCN(Cc2ccc(NC(=O)c3n[nH]cc3Nc3nccc4sccc34)cc2)CC1
A: 1.08

Q: // query: CN1CCN(Cc2ccc(NC(=O)c3n[nH]cc3Nc3nccc4ccsc34)cc2)CC1
A: 4.21

Q: Check CN1CCN(Cc2ccc(NC(=O)c3n[nH]cc3Nc3ncnc4[nH]ccc34)cc2)CC1 too.
A: 7.72

Q: And what about the compound CN1CCN(Cc2ccc(NC(=O)c3n[nH]cc3Nc3ncnc4ccsc34)cc2)CC1 ?
A: 10.7

Q: Next compound: CN1CCN(Cc2ccc(NC(=O)c3n[nH]cc3Nc3ncnc4occc34)cc2)CC1
A: 8.29

====

Some molecules, each annotated with its measured concentration at 3 h.
Assay: Pharmacokinetics after single oral dose in rats
Assay type: in vivo, Wistar rat
Conditions: male, Wistar, rat, plasma, po, 30 mg/kg, mean of rats, oral 30 mg/kg, time 3 h
Write down the numeric answer in ng/mL and omit the unit.

O=C(Nc1ccc(CN2CCOCC2)cc1)c1n[nH]cc1Nc1ncnc2sccc12 = 64.5

Let's switch to this molecule now.
Q: Give its concentration at 3 h value. Item: CN1CCN(Cc2ccc(NC(=O)c3n[nH]cc3Nc3ncnc4sccc34)cc2)CC1
A: 154

====

Molecular target: CDK5/p35 (Homo sapiens)
Sequence (Q00535 4-286 limits assumed): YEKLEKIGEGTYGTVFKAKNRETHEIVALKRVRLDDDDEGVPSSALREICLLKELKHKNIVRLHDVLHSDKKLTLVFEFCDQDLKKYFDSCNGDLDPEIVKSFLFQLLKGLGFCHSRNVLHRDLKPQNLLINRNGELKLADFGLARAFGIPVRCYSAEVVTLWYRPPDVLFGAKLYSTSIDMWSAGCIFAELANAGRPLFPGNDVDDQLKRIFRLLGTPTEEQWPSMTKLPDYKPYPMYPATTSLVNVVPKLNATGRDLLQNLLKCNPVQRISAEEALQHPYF
Sequence (Q15078 whole entry partner): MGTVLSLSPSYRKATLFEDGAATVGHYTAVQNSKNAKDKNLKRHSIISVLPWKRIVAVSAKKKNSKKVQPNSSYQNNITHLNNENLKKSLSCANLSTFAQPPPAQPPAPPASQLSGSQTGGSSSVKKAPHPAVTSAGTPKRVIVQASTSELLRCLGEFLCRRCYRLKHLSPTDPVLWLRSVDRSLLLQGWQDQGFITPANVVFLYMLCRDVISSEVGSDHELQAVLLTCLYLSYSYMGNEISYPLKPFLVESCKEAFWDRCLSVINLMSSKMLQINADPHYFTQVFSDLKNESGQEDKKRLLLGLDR
Assay: Kinase IC50, 33P labeled isotope method
Type: biochemical
measured-property: pIC50
Note: pIC50 values are expressed as the negative base-10 logarithm of concentration in M.

Q: Enter reported pIC50 observed with CDK5/p35 (Homo sapiens) for CN1CCN(Cc2ccc(NC(=O)c3n[nH]cc3Nc3ncnc4[nH]ccc34)cc2)CC1 [Compound I-11]
A: 7.92

====

concentration at 1 h values, listed per item
Assay: Pharmacokinetics after single oral dose in rats
Format: in vivo, Wistar rat
Conditions: male, Wistar, rat, plasma, po, 30 mg/kg, mean of rats, oral 30 mg/kg, time 1 h; read-out: Plasma concentration, mean
Response body: numeric value in ng/mL, unit text excluded.

CN1CCN(Cc2ccc(NC(=O)c3n[nH]cc3Nc3ncnc4sccc34)cc2)CC1 [Compound I-1] = 82.8

Turning now to a further record.
Q: Any idea what its concentration at 1 h is? The compound is O=C(Nc1ccc(CN2CCOCC2)cc1)c1n[nH]cc1Nc1ncnc2sccc12 [Compound I-2]
A: 85.3

====

Target: FLT4/VEGFR3 (Homo sapiens, UniProt P35916)
Sequence (P35916 845-1173 limits assumed): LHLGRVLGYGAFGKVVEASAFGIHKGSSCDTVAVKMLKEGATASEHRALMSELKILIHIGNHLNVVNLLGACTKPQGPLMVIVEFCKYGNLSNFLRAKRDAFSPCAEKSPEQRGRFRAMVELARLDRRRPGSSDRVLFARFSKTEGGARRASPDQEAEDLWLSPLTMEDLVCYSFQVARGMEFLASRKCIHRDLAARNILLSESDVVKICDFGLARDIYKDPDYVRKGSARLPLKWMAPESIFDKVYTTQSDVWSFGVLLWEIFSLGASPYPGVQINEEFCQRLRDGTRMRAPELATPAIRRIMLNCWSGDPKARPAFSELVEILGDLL
Test: Kinase IC50, 33P labeled isotope method
Assay type: biochemical
measured-property: IC50 (nM)
Lab book: enter the figure in nM, no units written.

Q: What value of measured IC50 is listed for CN1CCN(Cc2ccc(NC(=O)c3n[nH]cc3Nc3ncnc4[nH]ccc34)cc2)CC1 [Compound I-11] ?
A: 4

====

Target: CDK3/cyclin E (Homo sapiens)
Sequence (Q00526 4-286 limits assumed): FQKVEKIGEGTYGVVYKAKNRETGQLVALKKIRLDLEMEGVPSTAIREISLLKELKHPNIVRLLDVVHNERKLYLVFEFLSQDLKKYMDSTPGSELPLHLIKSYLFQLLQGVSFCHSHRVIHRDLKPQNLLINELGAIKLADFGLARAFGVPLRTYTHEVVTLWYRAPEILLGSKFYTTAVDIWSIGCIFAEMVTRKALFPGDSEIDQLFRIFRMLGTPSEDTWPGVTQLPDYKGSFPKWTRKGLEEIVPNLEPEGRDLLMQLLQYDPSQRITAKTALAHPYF
Sequence (P24864 whole entry partner): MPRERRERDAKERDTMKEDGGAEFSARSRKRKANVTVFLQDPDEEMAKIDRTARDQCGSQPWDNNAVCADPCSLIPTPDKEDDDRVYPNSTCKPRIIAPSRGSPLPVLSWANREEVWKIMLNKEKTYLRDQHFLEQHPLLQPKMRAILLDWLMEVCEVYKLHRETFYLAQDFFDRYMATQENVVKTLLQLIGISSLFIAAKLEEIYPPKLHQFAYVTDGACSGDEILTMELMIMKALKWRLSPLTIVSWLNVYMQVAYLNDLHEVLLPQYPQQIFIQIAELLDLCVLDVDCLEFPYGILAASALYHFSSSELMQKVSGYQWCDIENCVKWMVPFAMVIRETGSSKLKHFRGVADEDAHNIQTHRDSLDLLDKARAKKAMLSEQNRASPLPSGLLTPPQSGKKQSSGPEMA
Assay: Kinase IC50, 33P labeled isotope method
Format: biochemical
Measured IC50 of individual entries
Give the quantity in nM, number only.

Q: Item CN1CCN(Cc2ccc(NC(=O)c3n[nH]cc3Nc3ncnc4[nH]ccc34)cc2)CC1 has what recorded IC50?
A: 155

Q: Now this one: CN1CCN(Cc2ccc(NC(=O)c3n[nH]cc3Nc3ncnc4sccc34)cc2)CC1
A: 190

====

Molecular target: CDK6/cyclin D1 (Homo sapiens, UniProt Q00534)
Sequence (Q00534 13-300 limits assumed): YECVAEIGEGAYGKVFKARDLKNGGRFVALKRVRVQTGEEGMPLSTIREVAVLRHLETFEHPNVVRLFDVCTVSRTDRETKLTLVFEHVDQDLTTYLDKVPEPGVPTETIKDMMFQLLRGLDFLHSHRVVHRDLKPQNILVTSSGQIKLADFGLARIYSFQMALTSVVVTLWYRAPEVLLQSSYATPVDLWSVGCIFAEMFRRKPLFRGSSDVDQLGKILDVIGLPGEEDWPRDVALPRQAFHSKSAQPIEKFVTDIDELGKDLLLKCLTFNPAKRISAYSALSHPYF
Sequence (P24385 whole entry partner): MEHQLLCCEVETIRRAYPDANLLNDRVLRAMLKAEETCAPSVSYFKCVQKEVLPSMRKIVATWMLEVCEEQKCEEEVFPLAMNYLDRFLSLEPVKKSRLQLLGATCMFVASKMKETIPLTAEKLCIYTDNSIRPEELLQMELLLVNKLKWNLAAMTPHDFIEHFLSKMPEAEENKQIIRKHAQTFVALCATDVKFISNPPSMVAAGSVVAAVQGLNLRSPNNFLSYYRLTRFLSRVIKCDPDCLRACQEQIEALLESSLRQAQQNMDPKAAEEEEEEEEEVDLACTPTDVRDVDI
Assay: Kinase IC50, 33P labeled isotope method
Format: biochemical
Conditions: 20 μM ATP; read-out: IC50* CDK6/cyclin D1
measured-property: IC50 (nM)
Give the quantity in nM, number only.

Q: State the recorded IC50 for this entry: Cc1cc2c(Nc3c[nH]nc3C(=O)Nc3ccc(CN4CCN(C)CC4)cc3)ncnc2s1
A: 4

====

Biological target: CDK2/A (Homo sapiens)
Construct: purchased
Experiment: Inhibitory activity to CDK2 (FRET)
Type: biochemical
Details: read-out: CDK2 inhibition % (1 × 10^−6 mol/L)
Give yes when the value for inhibition at 1 µM is at least 60%. Give no when it is less.

Reference set, count: 3
CN1CCN(Cc2ccc(NC(=O)c3n[nH]cc3Nc3ccnc4ccoc34)cc2)CC1 [Compound I-39] = no
CN1CCN(Cc2ccc(NC(=O)c3n[nH]cc3Nc3nccc4ccoc34)cc2)CC1 [Compound I-37] = yes
CN1CCN(Cc2ccc(NC(=O)c3n[nH]cc3Nc3ccnc4occc34)cc2)CC1 [Compound I-41] = no

Q: Please indicate if the recorded inhibition at 1 µM for CN1CCN(Cc2ccc(NC(=O)c3n[nH]cc3Nc3ncnc4[nH]ccc34)cc2)CC1 [Compound I-11] meets or exceeds 60%.
A: yes

Q: Thanks! And CN1CCN(Cc2ccc(NC(=O)c3n[nH]cc3Nc3ncnc4ccsc34)cc2)CC1 [Compound I-9] ?
A: yes

Q: # iterate: Cc1cc2c(Nc3c[nH]nc3C(=O)Nc3ccc(CN4CCN(C)CC4)cc3)ncnc2[nH]1 [Compound I-13]
A: yes

Q: Likewise for CN1CCN(Cc2ccc(NC(=O)c3n[nH]cc3Nc3ncnc4sccc34)cc2)CC1 [Compound I-1] ?
A: yes

====

Consider the following MIC values measured on Candida parapsilosis.
Response body: numeric value in µg/mL, unit text excluded.

Q: What value of MIC has been recorded for this entry: CN1CCN(Cc2ccc(NC(=O)c3n[nH]cc3Nc3nccc4sccc34)cc2)CC1
A: 0.96

Q: // repeat for CN1CCN(Cc2ccc(NC(=O)c3n[nH]cc3Nc3nccc4ccsc34)cc2)CC1 and report
A: 6.47

Q: Note, next up: CN1CCN(Cc2ccc(NC(=O)c3n[nH]cc3Nc3ncnc4occc34)cc2)CC1
A: 9.76

====

Assay: Pharmacokinetics after single oral dose in rats
Type: in vivo, Wistar rat
Settings: male, Wistar, rat, plasma, po, 30 mg/kg, mean of rats, oral 30 mg/kg, time 2.5 h; read-out: Plasma concentration, mean
measured-property: concentration at 2.5 h (ng/mL)
Reply with just the number (in ng/mL).

O=C(Nc1ccc(CN2CCOCC2)cc1)c1n[nH]cc1Nc1ncnc2sccc12 = 57.6

Now take the following compound into account.
Q: Consider the compound shown here: CN1CCN(Cc2ccc(NC(=O)c3n[nH]cc3Nc3ncnc4sccc34)cc2)CC1 What is its recorded concentration at 2.5 h?
A: 113

====

Experiment: Measurement of water solubility
Format: physicochemical
Conditions: thermodynamic from solid, distilled water, 25° C.
measured-property: solubility at 72 h

CN1CCN(Cc2ccc(NC(=O)c3n[nH]cc3Nc3ncnc4sccc34)cc2)CC1 = < 0.1 µg/mL

We next turn to a different molecule, shown below.
Q: For the molecule O=C(Nc1ccc(CN2CCOCC2)cc1)c1n[nH]cc1Nc1ncnc2sccc12 , what solubility at 72 h is on record?
A: < 0.08 µg/mL

====

Assay: Pharmacokinetics after single oral dose in rats
Assay type: in vivo, Wistar rat
Settings: male, Wistar, rat, plasma, po, 30 mg/kg, rat No. 1-6, oral 30 mg/kg, time 2 h; read-out: Plasma concentration, individual rats
measured-property: concentration at 2 h

Q: Find the recorded concentration at 2 h belonging to CN1CCN(Cc2ccc(NC(=O)c3n[nH]cc3Nc3ncnc4sccc34)cc2)CC1 [Compound I-1] and report it.
A: 114 ng/mL

====

Biological target: CDK2/A (Homo sapiens, UniProt P24941)
Construct: purchased
Assay: Inhibitory activity to CDK2 (FRET)
Format: biochemical
Conditions: read-out: CDK2 inhibition % (1 × 10^−6 mol/L)
measured-property: inhibition at 1 µM
The reply should read as a number followed by its unit.

See these solved cases before continuing.
Cc1cc2c(Nc3c[nH]nc3C(=O)Nc3ccc(CN4CCN(C)CC4)cc3)ncnc2s1 = 62.5%
O=C(Nc1ccc(CN2CCOCC2)cc1)c1n[nH]cc1Nc1nccc2occc12 = 65.8%
CN1CCN(Cc2ccc(NC(=O)c3n[nH]cc3Nc3nccc4ccsc34)cc2)CC1 = 76.2%

Moving on to another compound below.
Q: Give the measured inhibition at 1 µM of O=C(Nc1ccc(CN2CCOCC2)cc1)c1n[nH]cc1Nc1ncnc2sccc12 .
A: 46.6%

====

Target: CDK2/Cyclin A1 (Homo sapiens, UniProt P24941)
Assay: Kinase IC50, 33P labeled isotope method
Type: biochemical
Conditions: 20 μM ATP; read-out: IC50* CDK2/Cyclin A1
Overview of recorded pIC50 for various compounds
Please report pIC50 as the negative decimal logarithm of the molar concentration, giving only the number.

Below: 3 compounds and their reported pIC50.
Cc1cc2c(Nc3c[nH]nc3C(=O)Nc3ccc(CN4CCN(C)CC4)cc3)ncnc2s1 [Compound I-3] = 8.05
CN1CCN(Cc2ccc(NC(=O)c3n[nH]cc3Nc3ncnc4occc34)cc2)CC1 [Compound I-21] = 7.96
Cc1cc2c(Nc3c[nH]nc3C(=O)Nc3ccc(CN4CCN(C)CC4)cc3)nccc2s1 [Compound I-27] = 8.00

Q: Which pIC50 value is on record for Cc1cc2c(Nc3c[nH]nc3C(=O)Nc3ccc(CN4CCN(C)CC4)cc3)ncnc2[nH]1 [Compound I-13] ?
A: 8.00
